Reference source: paper PMC3260273

- testTarget: AgOrco (Anopheles gambiae, UniProt Q7QCC7)
- Construct: gene Orco
- assay: calcium mobilization in AgOrco-only HEK cells against VUAA1
- Assay type: cell-based
assayMetric: pIC50
Reminder that pIC50 is minus the log10 of a molar concentration.

Problem: Query (compound): CCn1c(SCC(=O)Nc2ccc(Br)cc2C)nnc1-c1cccnc1 ; field requested: pIC50
Result: 2.80

====

- testTarget: AgOrco (Anopheles gambiae)
- Construct: gene Orco
- Sequence (Q7QCC7 1-478): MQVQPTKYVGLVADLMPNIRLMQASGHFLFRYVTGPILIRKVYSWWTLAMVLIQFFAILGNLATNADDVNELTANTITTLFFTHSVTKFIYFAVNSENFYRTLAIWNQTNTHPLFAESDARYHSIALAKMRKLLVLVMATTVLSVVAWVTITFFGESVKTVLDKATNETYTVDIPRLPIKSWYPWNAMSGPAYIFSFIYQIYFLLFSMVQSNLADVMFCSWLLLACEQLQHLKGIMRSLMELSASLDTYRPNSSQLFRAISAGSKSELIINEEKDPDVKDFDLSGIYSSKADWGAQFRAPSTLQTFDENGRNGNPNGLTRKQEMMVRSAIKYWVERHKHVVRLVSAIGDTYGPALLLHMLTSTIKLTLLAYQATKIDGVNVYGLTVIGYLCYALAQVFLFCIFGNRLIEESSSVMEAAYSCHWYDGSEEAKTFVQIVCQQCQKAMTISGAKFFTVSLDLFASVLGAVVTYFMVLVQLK
- assay: calcium mobilization in AgOrco-only HEK cells against VUAA1; whole-cell patch clamp
- Assay type: cell-based
assayMetric: pIC50
Reminder that pIC50 is minus the log10 of a molar concentration.

Problem: Query (molecule): CCn1c(SCC(=O)N2c3ccccc3Sc3ccccc32)nnc1-c1ccco1 [VU0183254] ; field requested: pIC50
Result: 4.90
